We begin with a simple list: items and their reported Kd.
Target Under Test: T1, soluble human FcRn (human, UniProt P55899 24-297; P61769 21-119, biotinylated (Sulfo-NHS-LC-Biotin) in the ELISA; amine-coupled to CM5 chip in SPR)
T1 construct: also called shFcRn; biotinylated shFcRn
T1 sequence (P55899 24-297 limits assumed, chain 1 of 2): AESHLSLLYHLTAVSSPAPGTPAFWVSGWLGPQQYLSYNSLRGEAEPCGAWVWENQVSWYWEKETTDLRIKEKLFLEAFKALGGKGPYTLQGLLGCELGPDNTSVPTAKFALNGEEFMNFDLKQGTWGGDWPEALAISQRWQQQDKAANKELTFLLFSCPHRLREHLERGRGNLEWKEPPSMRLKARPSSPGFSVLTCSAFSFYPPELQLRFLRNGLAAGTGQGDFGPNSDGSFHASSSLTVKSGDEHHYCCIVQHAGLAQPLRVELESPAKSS
T1 sequence (P61769 21-119 limits assumed, chain 2 of 2): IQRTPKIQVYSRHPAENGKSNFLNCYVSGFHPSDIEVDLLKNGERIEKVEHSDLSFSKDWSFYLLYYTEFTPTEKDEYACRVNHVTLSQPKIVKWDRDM
Procedure Details: SPR, pH 6
Bridge positions count the residues as written; N and C are the ends. Ends that are not written are not given here.

| Binder | Kd (µM) |
| --- | --- |
| QRFXTGHFGGLXPCNGP (Pen at 4; pentafluoroPhe at 12; disulfide; C-terminal amide) [Peptide No. 65] | 72 |
| QRFXTGHFGGLXPCNGP (Pen at 4; 3-pyridylAla at 12; disulfide; C-terminal amide) [Peptide No. 67] | 34 |
| QRFXTGHFGGLXPCNGP (Pen at 4; 4-nitro-Phe at 12; disulfide; C-terminal amide) [Peptide No. 68] | 180 |
| QRFCTGHFGGLFPCNGP-NH2 (disulfide 4-14 (inferred)) [Peptide No. 26] | 230 |
| QRFXTGHFGGLYPCNGP (Pen (L-penicillamine) at 4; disulfide; C-terminal amide) [Peptide No. 32] | 0.25 |
